Target: Beta-3 Adrenergic Receptor (Homo sapiens (Human), UniProt P13945)
Sequence (P13945 whole entry, species assumed): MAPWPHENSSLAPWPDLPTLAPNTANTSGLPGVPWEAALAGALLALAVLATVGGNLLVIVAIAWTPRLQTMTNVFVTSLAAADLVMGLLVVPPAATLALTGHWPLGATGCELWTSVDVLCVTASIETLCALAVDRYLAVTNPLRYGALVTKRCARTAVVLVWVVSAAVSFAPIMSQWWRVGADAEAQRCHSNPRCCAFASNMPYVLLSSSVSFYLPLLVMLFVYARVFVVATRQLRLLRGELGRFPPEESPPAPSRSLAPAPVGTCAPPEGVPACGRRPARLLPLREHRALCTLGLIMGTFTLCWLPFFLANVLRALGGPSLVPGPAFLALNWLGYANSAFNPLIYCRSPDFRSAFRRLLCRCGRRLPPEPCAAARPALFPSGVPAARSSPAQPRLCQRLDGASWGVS
Assay: Homogeneous Time-Resolved Fluorescence (HTRF) cAMP antagonist assay, IC50 determination
Conditions: CHO-K1 cells stably expressing recombinant receptor, isoproterenol at EC90
readout.kind: IC50 (nM)

molecule="CNS(=O)(=O)c1cccc(OC[C@@H](O)CNC2COC3(CCN(S(=O)(=O)c4ccc(C)c(C#N)c4)CC3)C2)c1 (stereo partly shown) [Compound 198]" study_target="Beta-3 Adrenergic Receptor (Homo sapiens (Human), UniProt P13945)" readout_kind=IC50 u=nM result_number=8.65
molecule="CCn1cc(S(=O)(=O)N2CCC3(CC2)C[C@@H](NC[C@H](O)COc2cccc(S(=O)(=O)NC)c2)CO3)c(=O)c2ccccc21 [Compound 492]" study_target="Beta-3 Adrenergic Receptor (Homo sapiens (Human), UniProt P13945)" readout_kind=IC50 u=nM result_number=33
molecule="CNS(=O)(=O)c1cccc(OC[C@@H](O)CNC2COC3(CCN(S(=O)(=O)c4ccc(C#N)cc4Cl)CC3)C2)c1 (stereo partly shown) [Compound 157]" study_target="Beta-3 Adrenergic Receptor (Homo sapiens (Human), UniProt P13945)" readout_kind=IC50 u=nM result_number=26.4
molecule="CCn1cc(S(=O)(=O)N2CCC3(CC2)C[C@@H](NC[C@H](O)COc2cccc(S(=O)(=O)NC)c2)CO3)c(=O)c2cccc(F)c21 [Compound 525]" study_target="Beta-3 Adrenergic Receptor (Homo sapiens (Human), UniProt P13945)" readout_kind=IC50 u=nM result_number=21.6
molecule="CNS(=O)(=O)c1cccc(OC[C@@H](O)CN[C@H]2COC3(CCN(S(=O)(=O)c4cnc5c(c4)CCCC5)CC3)C2)c1 [Compound 479]" study_target="Beta-3 Adrenergic Receptor (Homo sapiens (Human), UniProt P13945)" readout_kind=IC50 u=nM result_number=32.1
molecule="CNS(=O)(=O)c1cccc(OC[C@@H](O)CNC2COC3(CCN(S(=O)(=O)c4cccc(-c5ccc(CC#N)cc5)c4)CC3)C2)c1 (stereo partly shown) [Compound 117]" study_target="Beta-3 Adrenergic Receptor (Homo sapiens (Human), UniProt P13945)" readout_kind=IC50 u=nM result_number=14.5
molecule="CNS(=O)(=O)c1cccc(OC[C@@H](O)CNC2COC3(CCN(S(=O)(=O)c4ccc(C)cc4)CC3)C2)c1 (stereo partly shown) [Compound 53]" study_target="Beta-3 Adrenergic Receptor (Homo sapiens (Human), UniProt P13945)" readout_kind=IC50 u=nM result_number=21.8
molecule="CNS(=O)(=O)c1cccc(OC[C@@H](O)CN[C@H]2COC3(CCN(S(=O)(=O)c4cnc5c(c4)N(C)CCO5)CC3)C2)c1 [Compound 414]" study_target="Beta-3 Adrenergic Receptor (Homo sapiens (Human), UniProt P13945)" readout_kind=IC50 u=nM result_number=16.8
molecule="CNS(=O)(=O)c1cccc(OC[C@@H](O)CNC2COC3(CCN(S(=O)(=O)c4cc(C)oc4C(F)(F)F)CC3)C2)c1 (stereo partly shown) [Compound 162]" study_target="Beta-3 Adrenergic Receptor (Homo sapiens (Human), UniProt P13945)" readout_kind=IC50 u=nM result_number=42.6
molecule="CNS(=O)(=O)c1cccc(OC[C@@H](O)CNC2COC3(CCN(S(=O)(=O)c4ccc(OC)c(C)c4)CC3)C2)c1 (stereo partly shown) [Compound 147]" study_target="Beta-3 Adrenergic Receptor (Homo sapiens (Human), UniProt P13945)" readout_kind=IC50 u=nM result_number=13
molecule="CNS(=O)(=O)c1cccc(OC[C@@H](O)CNC2COC3(CCN(S(=O)(=O)c4cnn(-c5ccccc5)c4C)CC3)C2)c1 (stereo partly shown) [Compound 132]" study_target="Beta-3 Adrenergic Receptor (Homo sapiens (Human), UniProt P13945)" readout_kind=IC50 u=nM result_number=10.8
molecule="CNS(=O)(=O)c1cccc(OC[C@@H](O)CNC2COC3(CCN(S(=O)(=O)c4ccc5ncccc5c4)CC3)C2)c1 (stereo partly shown) [Compound 323]" study_target="Beta-3 Adrenergic Receptor (Homo sapiens (Human), UniProt P13945)" readout_kind=IC50 u=nM result_number=24.8
molecule="CNS(=O)(=O)c1cccc(OC[C@@H](O)CN[C@@H]2COC3(CCN(S(=O)(=O)c4ccc5ccccc5c4)CC3)C2)c1 [Compound 29]" study_target="Beta-3 Adrenergic Receptor (Homo sapiens (Human), UniProt P13945)" readout_kind=IC50 u=nM result_number=4.53
